tested on: U87MG pLVX-IDH2 R140Q-neo cells; test: U87MG pLVX-IDH2 R140Q-neo cell based assay, 2-HG by LC-MS; conditions: Homo sapiens, U-87 MG
pIC50: −log10 of the molar value.
Each entry below carries its reported pIC50.

>  <compound>
C[C@@H](Nc1nc(N[C@H](C)C2CC2)nc(-n2ccc(C(F)(F)F)n2)n1)C1CC1

>  <pIC50>
> 7.30

$$$$
>  <compound>
Fc1ccc([C@H]2C[C@H](Nc3nc(NC4CCC(F)(F)C4)nc(-c4cccc(C(F)(F)F)n4)n3)C2)cc1 (stereo partly shown)

>  <pIC50>
> 7.30

$$$$
>  <compound>
CC(Nc1nc(N[C@H](C)C2CC2)nc(-c2cccc(C(F)(F)F)n2)n1)C(F)(F)F (stereo partly shown)

>  <pIC50>
> 7.30

$$$$
>  <compound>
CC(Nc1nc(Nc2ccnc(C(F)(F)F)c2)nc(-c2cccc(C(F)(F)F)n2)n1)C(F)(F)F (stereo not shown)

>  <pIC50>
> 7.30

$$$$
>  <compound>
FC(F)(F)c1cc(Nc2nc(NCC3CC3)nc(-c3cncc(C(F)(F)F)n3)n2)ccn1

>  <pIC50>
> 7.30

$$$$
>  <compound>
FC1(F)CC(Nc2nc(NC3CC(F)(F)C3)nc(-c3cncc(Cl)n3)n2)C1

>  <pIC50>
> 7.30

$$$$
>  <compound>
C[C@H](Nc1nc(Nc2ccnc(C3(C#N)CC3)c2)nc(-n2ccc(C(F)(F)F)n2)n1)C(F)(F)F

>  <pIC50>
> 7.30

$$$$

###

biological target: IDH1-R132H homodimer enzyme (Homo sapiens (Human), UniProt O75874, R132H); experiment: In vitro assay IDH1-R132H homodimer, NADPH depletion assay with NADPH/NADP preincubation; conditions: 5 μM NADPH and 37.5 μM NADP
Sequence (O75874 whole entry R132H): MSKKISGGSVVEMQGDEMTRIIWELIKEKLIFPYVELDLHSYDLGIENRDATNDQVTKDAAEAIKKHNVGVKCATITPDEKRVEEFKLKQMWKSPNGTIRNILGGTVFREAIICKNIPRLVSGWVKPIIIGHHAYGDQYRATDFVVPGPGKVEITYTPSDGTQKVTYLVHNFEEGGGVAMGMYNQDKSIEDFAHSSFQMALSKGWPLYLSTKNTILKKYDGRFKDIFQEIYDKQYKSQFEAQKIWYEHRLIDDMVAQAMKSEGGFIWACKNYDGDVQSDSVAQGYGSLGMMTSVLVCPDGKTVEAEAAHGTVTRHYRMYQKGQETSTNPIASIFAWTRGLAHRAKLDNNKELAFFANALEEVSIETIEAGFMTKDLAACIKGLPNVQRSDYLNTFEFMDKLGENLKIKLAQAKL
Property: IC50; scope: individual molecules
recorded-endpoint: IC50

>  <molecule>
CC(Nc1nc(Nc2ccnc(C3(C#N)CC3)c2)nc(-c2cccc(Cl)n2)n1)C(F)(F)F (stereo not shown) [Compound 134]

>  <measured-on>
IDH1-R132H homodimer enzyme (Homo sapiens (Human), UniProt O75874, R132H)

>  <reported>
< 50 nM

$$$$
>  <molecule>
FC1(F)CCC(Nc2nc(NC3CCC(F)(F)C3)nc(-c3ccnc(C(F)(F)F)n3)n2)C1 (stereo not shown) [Compound 194]

>  <measured-on>
IDH1-R132H homodimer enzyme (Homo sapiens (Human), UniProt O75874, R132H)

>  <reported>
100 to 1000 nM

$$$$
>  <molecule>
CC[C@H](Nc1nc(N[C@H](CC)C(F)(F)F)nc(-c2cccc(Cl)n2)n1)C(F)(F)F [Compound 196]

>  <measured-on>
IDH1-R132H homodimer enzyme (Homo sapiens (Human), UniProt O75874, R132H)

>  <reported>
< 50 nM

$$$$
>  <molecule>
Fc1ccc([C@H]2C[C@@H](Nc3nc(N[C@H]4C[C@@H](c5ccc(F)cc5)C4)nc(-c4cccc(C(F)(F)F)n4)n3)C2)cc1 [Compound 272]

>  <measured-on>
IDH1-R132H homodimer enzyme (Homo sapiens (Human), UniProt O75874, R132H)

>  <reported>
> 1000 nM

$$$$
>  <molecule>
FC1(F)CCC(Nc2nc(NC3CCN(c4ncccn4)C3)nc(-c3cccc(C(F)(F)F)n3)n2)C1 (stereo not shown) [Compound 227]

>  <measured-on>
IDH1-R132H homodimer enzyme (Homo sapiens (Human), UniProt O75874, R132H)

>  <reported>
100 to 1000 nM

$$$$
>  <molecule>
CC(C)Nc1nc(Nc2ccnc(C(C)(F)F)c2)nc(-c2nccc(C(F)(F)F)n2)n1 [Compound 298]

>  <measured-on>
IDH1-R132H homodimer enzyme (Homo sapiens (Human), UniProt O75874, R132H)

>  <reported>
> 1000 nM

$$$$
>  <molecule>
CC(Nc1nc(NC(C)C(F)(F)F)nc(-c2cncc(Cl)n2)n1)C(F)(F)F (stereo not shown) [Compound 156]

>  <measured-on>
IDH1-R132H homodimer enzyme (Homo sapiens (Human), UniProt O75874, R132H)

>  <reported>
< 50 nM

$$$$
